Documented pest or weed control at 500 g/ha across a set of compounds
Tested on: Digitaria sanguinalis (DIGSA)
experimental.protocol: Post-emergence efficacy, glasshouse spray test
Assay type: in vivo
particulars: Digitaria sanguinalis, post-emergence, 312 h; Application Rate 500 g/Ha; evaluated after 13 days; read-out: Control of weed species after post-emergence application, DIGSA (100=total damage to plant; 0=no damage to plant)
Please state the figure in %; there is no need to write the unit.

Field: example entries. Status: answers known.
{"compound": "O=C(O)CC[n+]1ccc(-c2ccsn2)cn1", "pest or weed control at 500 g/ha, %": 50}
{"compound": "O=S(=O)([O-])CC[n+]1ccc(-c2ncns2)cn1", "pest or weed control at 500 g/ha, %": 70}
{"compound": "Cn1cnc(-c2cc[n+](CCS(=O)(=O)[O-])nc2)n1", "pest or weed control at 500 g/ha, %": 90}
{"compound": "C=C/N=C(\\OC)c1cc[n+](C(C)C(=O)OC)nc1 (stereo not shown)", "pest or weed control at 500 g/ha, %": 50}
{"compound": "CCOC(=O)c1oc(-c2cc[n+](CCC(=O)OC)nc2)nc1C", "pest or weed control at 500 g/ha, %": 30}

Q: Value lookup for pest or weed control at 500 g/ha; key = "CCOP(=O)(O)CC[n+]1ccc(-c2ncco2)cn1"
Ans: 40

Q: Value lookup for pest or weed control at 500 g/ha; key = "Cc1nc(-c2cc[n+](CCS(=O)(=O)[O-])nc2)sc1C"
Ans: 50

Q: Value lookup for pest or weed control at 500 g/ha; key = "Cn1cnc(-c2cc[n+](CCC(=O)O)nc2)n1"
Ans: 90

Q: Value lookup for pest or weed control at 500 g/ha; key = "O=C(O)c1ccccc1C[n+]1ccc(-c2ncco2)cn1"
Ans: 40

Q: Value lookup for pest or weed control at 500 g/ha; key = CC(C(=O)O)[n+]1ccc(-c2ncco2)cn1 (stereo not shown)
Ans: 10

###

Test system: Setaia fabei (SETFA)
experimental.protocol: Post-emergence efficacy, glasshouse spray test
Assay type: in vivo
particulars: Setaria faberi, post-emergence, 312 h; Application Rate 500 g/Ha; evaluated after 13 days; read-out: Control of weed species after post-emergence application, SETFA (100=total damage to plant; 0=no damage to plant)
Classify: Y when pest or weed control at 500 g/ha is strictly less than 50%; N when pest or weed control at 500 g/ha is not.

{"molecule": "O=C(O)c1cccc(C[n+]2ccc(-c3ncco3)cn2)c1", "answer.label": "N"}
{"molecule": "COC(=O)c1cccc(C[n+]2ccc(-c3ncco3)cn2)c1", "answer.label": "Y"}
{"molecule": "CC(CNS(=O)(=O)[O-])[n+]1ccc(-c2ncco2)cn1 (stereo not drawn)", "answer.label": "N"}
{"molecule": "O=S(=O)([O-])CC[n+]1ccc(-c2ccon2)cn1", "answer.label": "N"}
{"molecule": "O=C(O)CC[n+]1ccc(-c2nc(Cl)cs2)cn1", "answer.label": "N"}

Q: Record "Cc1nnc(-c2cc[n+](CCC(=O)O)nc2)o1" : is its pest or weed control at 500 g/ha strictly below 50%?
Ans: N

Q: Record C=C/N=C(\OC)c1cc[n+](C(C)C(=O)OC)nc1 (stereo not drawn) : is its pest or weed control at 500 g/ha strictly below 50%?
Ans: Y
